# Species: Rattus norvegicus
# ASSAY SUMMARY: Rate of formation of compound by F-344 rat liver microsomes
# Type: ADME
MEASURED QUANTITY: Rate (nmol/min/mg)
The answer is to be given in nmol/min/mg; state only the numeric part.

Using the record for O=C(CCCO)c1cccnc1 , report its Rate.
0.4

Ok, now O=NN1CCCC1c1ccc[n+]([O-])c1 (stereo not given)
0.57

// next record OC1CCC(c2cccnc2)O1 (stereo not given)
0.76

Where do the numbers come from? From ChEMBL document CHEMBL1121596.
